The entries below come with measured inhibition at 2 µM values attached.
- measured_on: CYP17 (Homo sapiens, UniProt P05093)
- Sequence (P05093 whole entry): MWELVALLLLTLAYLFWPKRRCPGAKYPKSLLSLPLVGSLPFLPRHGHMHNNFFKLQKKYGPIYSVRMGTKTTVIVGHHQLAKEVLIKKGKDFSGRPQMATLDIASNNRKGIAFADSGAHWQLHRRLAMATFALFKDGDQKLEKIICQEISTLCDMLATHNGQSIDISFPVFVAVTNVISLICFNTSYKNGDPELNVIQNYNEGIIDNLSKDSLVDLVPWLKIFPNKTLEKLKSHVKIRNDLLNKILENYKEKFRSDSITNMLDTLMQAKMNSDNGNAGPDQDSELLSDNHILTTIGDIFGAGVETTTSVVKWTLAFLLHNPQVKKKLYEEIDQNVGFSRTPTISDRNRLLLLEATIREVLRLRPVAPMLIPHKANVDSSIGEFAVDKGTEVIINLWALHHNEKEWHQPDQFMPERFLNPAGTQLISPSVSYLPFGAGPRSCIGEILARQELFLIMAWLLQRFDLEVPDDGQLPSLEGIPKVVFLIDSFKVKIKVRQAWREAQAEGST
- measurement_protocol: Inhibition of human CYP17 expressed in Escherichia coli using progesterone as substrate at 2 uM
- measurement_setup: probe progesterone
Note: unit % is implicit; provide only the numeric part.

Take a look at these entries with their results.
compound	inhibition at 2 µM / %
C=C(c1ccncc1)c1cc2c3c(c1)CCN3C(=O)CC2	17
Cc1cccc(C(c2ccncc2)c2cc3c4c(c2)CCN4C(=O)CC3)c1 (stereo unspecified)	46

Next item in the queue.
Data request: Returns the measured inhibition at 2 µM for the input compound. Input: `N#Cc1ccc(C(c2ccc(C#N)cc2)n2cncn2)cc1`
Data returned: 7

----------
- measured_on: Cytochrome P450 11B2, mitochondrial (Homo sapiens)
- measurement_protocol: Inhibition of human CYP11B2 expressed in hamster V79MZh cells using [1,2-3H]-11-deoxy-corticosterone as substrate
pIC50: −log10 of the molar value.
Threshold check on pIC50: at or above 7 gives 1.0, strictly below gives 0.0.

Please review the entries below; each comes with its answer.
molecule	measured_on	classification
C=C(c1cccnc1)c1cc2c3c(c1)CCN3C(=O)CC2	Cytochrome P450 11B2, mitochondrial (Homo sapiens)	0.0
O=C1CCc2cc(C(c3ccncc3)c3ccc(F)cc3)cc3c2N1CC3 (stereo not drawn)	Cytochrome P450 11B2, mitochondrial (Homo sapiens)	1.0
N#Cc1ccc(C(c2ccc(C#N)cc2)n2cncn2)cc1	Cytochrome P450 11B2, mitochondrial (Homo sapiens)	0.0
O=C1CCc2cc(-c3cccnc3)cc3c2N1CC3	Cytochrome P450 11B2, mitochondrial (Homo sapiens)	1.0
O=C1CCc2cc(C(c3cccnc3)c3cccc(Cl)c3)cc3c2N1CC3 (stereo not drawn)	Cytochrome P450 11B2, mitochondrial (Homo sapiens)	0.0

Moving on to the next molecule.
Data request: Exam item: decide whether the reported pIC50 for COc1ccc(C(c2ccncc2)c2cc3c4c(c2)CCN4C(=O)CC3)cc1 (single isomer, unassigned; (+)) is at least 7.
Data returned: 1.0

----------
- measured_on: Cytochrome P450 11B1, mitochondrial (Homo sapiens, UniProt P15538)
- Sequence (P15538 whole entry): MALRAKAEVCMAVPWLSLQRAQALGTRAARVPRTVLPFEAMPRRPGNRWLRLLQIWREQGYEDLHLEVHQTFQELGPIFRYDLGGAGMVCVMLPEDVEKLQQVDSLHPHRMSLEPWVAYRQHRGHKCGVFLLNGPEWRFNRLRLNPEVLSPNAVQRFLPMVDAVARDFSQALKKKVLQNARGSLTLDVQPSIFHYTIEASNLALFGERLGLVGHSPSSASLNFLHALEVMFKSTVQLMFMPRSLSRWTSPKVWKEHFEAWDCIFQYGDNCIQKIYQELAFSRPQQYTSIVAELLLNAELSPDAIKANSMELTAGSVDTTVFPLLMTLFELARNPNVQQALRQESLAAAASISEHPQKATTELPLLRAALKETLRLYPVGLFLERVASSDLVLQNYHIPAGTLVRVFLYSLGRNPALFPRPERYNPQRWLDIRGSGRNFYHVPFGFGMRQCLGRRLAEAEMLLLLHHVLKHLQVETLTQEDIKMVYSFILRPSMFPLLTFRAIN
- measurement_protocol: Inhibition of human CYP11B1 expressed in hamster V79MZh cells using [1,2-3H]-11-deoxy-corticosterone as substrate
Measured IC50 determines class: band 1 (below 200 nM), band 2 (200 nM to below 1000 nM), band 3 (1000 nM or more)

Please review the entries below; each comes with its answer.
compound	classification
Cc1cccc(C(c2cccnc2)c2cc3c4c(c2)CCN4C(=O)CC3)c1 (stereo not given)	band 3
O=C1CCc2cc(C(c3ccccc3)c3cccnc3)cc3c2N1CC3 (stereo not given)	band 1

Data request: Sort into band: `O=C1CCc2cc(Cc3ccncc3)cc3c2N1CC3`
Data returned: band 2

Data request: Quick one: O=C1CCc2cc(C(c3ccncc3)c3ccc(Cl)cc3)cc3c2N1CC3 (stereo not given)
Data returned: band 1

Data request: Quick one: Cc1cccc(C(c2ccncc2)c2cc3c4c(c2)CCN4C(=O)CC3)c1 (stereo not given)
Data returned: band 3

Data request: Quick one: COc1ccc(C(c2ccncc2)c2cc3c4c(c2)CCN4C(=O)CC3)cc1 (single isomer, unassigned; (-))
Data returned: band 2

Data request: Quick one: O=C1CCc2cc(C(O)c3cccnc3)cc3c2N1CC3 (stereo not given)
Data returned: band 2

Data request: Quick one: COc1ccc(C(c2ccncc2)c2cc3c4c(c2)CCN4C(=O)CC3)cc1 (single isomer, unassigned; (+))
Data returned: band 3

Data request: Quick one: COc1cccc(C(c2ccncc2)c2cc3c4c(c2)CCN4C(=O)CC3)c1 (stereo not given)
Data returned: band 3

Data request: Quick one: O=C1CCc2cc(C(c3cccnc3)c3cccc(Cl)c3)cc3c2N1CC3 (stereo not given)
Data returned: band 1

----------
- measured_on: Cytochrome P450 11B1, mitochondrial (Homo sapiens)
- measurement_protocol: Inhibition of human CYP11B1 expressed in hamster V79MZh cells using [1,2-3H]-11-deoxy-corticosterone as substrate
metric_name: IC50 (nM)
Note: unit nM is implicit; provide only the numeric part.

Take a look at these entries with their results.
compound	IC50 (nM)
O=C1CCc2cc(-c3cccnc3)cc3c2N1CC3	715
CC(C)C(c1ccncc1)c1cc2c3c(c1)CCN3C(=O)CC2 (stereo not drawn)	1420

Next item in the queue.
Data request: Returns the measured IC50 for the input compound. Input: O=C1CCc2cc(C(O)(c3ccccc3)c3ccncc3)cc3c2N1CC3 (stereo not drawn)
Data returned: 745

----------
- measured_on: Cytochrome P450 11B2, mitochondrial (Homo sapiens, UniProt P19099)
- Sequence (P19099 whole entry): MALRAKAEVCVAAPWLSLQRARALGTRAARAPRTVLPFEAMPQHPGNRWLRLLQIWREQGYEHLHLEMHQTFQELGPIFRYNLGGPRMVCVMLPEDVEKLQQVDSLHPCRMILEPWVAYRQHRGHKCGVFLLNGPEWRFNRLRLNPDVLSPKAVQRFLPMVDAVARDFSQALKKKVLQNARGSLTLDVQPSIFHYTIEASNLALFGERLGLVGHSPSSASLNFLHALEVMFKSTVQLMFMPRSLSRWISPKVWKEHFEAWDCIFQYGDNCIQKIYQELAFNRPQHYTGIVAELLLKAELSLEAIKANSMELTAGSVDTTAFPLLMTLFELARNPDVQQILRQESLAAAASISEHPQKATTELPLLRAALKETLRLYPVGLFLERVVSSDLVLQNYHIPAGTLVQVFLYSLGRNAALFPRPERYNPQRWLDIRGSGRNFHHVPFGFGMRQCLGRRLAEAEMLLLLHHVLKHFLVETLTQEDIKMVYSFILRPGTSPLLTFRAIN
- measurement_protocol: Inhibition of human CYP11B2 expressed in hamster V79MZh cells using [1,2-3H]-11-deoxy-corticosterone as substrate
The entries below come with measured pIC50 values attached.
Scale: negative log10 of molar concentration, which is what pIC50 denotes.

Take a look at these entries with their results.
molecule	measured_on	pIC50
O=C1CCc2cc(C(c3ccncc3)C3CCCCC3)cc3c2N1CC3 (stereo not given)	Cytochrome P450 11B2, mitochondrial (Homo sapiens, UniProt P19099)	5.89
O=C1CCc2cc(C(c3ccncc3)c3cccc(F)c3)cc3c2N1CC3 (stereo not given)	Cytochrome P450 11B2, mitochondrial (Homo sapiens, UniProt P19099)	7.06
Cc1cccc(C(c2ccncc2)c2cc3c4c(c2)CCN4C(=O)CC3)c1 (stereo not given)	Cytochrome P450 11B2, mitochondrial (Homo sapiens, UniProt P19099)	7.39

Data request: What is its pIC50 for Cytochrome P450 11B2, mitochondrial (Homo sapiens, UniProt P19099)? Entry: O=C1CCc2cc(C(c3ccc(F)cc3)c3cccnc3)cc3c2N1CC3 (stereo not given)
Data returned: 6.23

----------
- measured_on: CYP17 (Homo sapiens, UniProt P05093)
- measurement_protocol: Inhibition of human CYP17 expressed in Escherichia coli using progesterone as substrate at 2 uM
- measurement_setup: probe progesterone
metric_name: inhibition at 2 µM

Take a look at these entries with their results.
compound	metric_name	result
O=C1CCc2cc(C(O)c3ccncc3)cc3c2N1CC3 (stereo not drawn)	inhibition at 2 µM	< 3%
C=C(c1cccnc1)c1cc2c3c(c1)CCN3C(=O)CC2	inhibition at 2 µM	< 3%

Next item in the queue.
Data request: Returns the measured inhibition at 2 µM for the input compound. Input: N#Cc1ccc(C2CCCc3cncn32)cc1 (stereo not drawn)
Data returned: < 3%
